- System name: MAX:MAX (p21) (human, UniProt P61244-2 1-151)
- Sequence (P61244 other isoform, or with tags, fused parts or gaps): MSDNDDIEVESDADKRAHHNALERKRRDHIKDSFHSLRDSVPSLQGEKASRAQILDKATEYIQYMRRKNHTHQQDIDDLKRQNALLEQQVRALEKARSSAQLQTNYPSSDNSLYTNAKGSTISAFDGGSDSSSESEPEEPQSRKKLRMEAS
- Measurement protocol: protein-binding microarray (anti-MAX antibody); PBM: 15 mM Tris-HCl pH 7.5, 100 mM KCl, 0.075% NP40, 7.5 mM beta-mercaptoethanol, 375 ng/ul BSA, 8 ng/ul poly(dA-dT):(dA-dT), 550 ng complex, 60 min, room tempe; high values mean tight binding
- Condition notes: protein: recombinant; tags: 6xHis; chain copies: 2; label: 3' end of printed strand (linker) attached to glass slide; dsDNA, one strand shown
In all, about 4,500 sequences were measured (“log2 normalized fluorescence”: median about -0.34, highest 2% from about 3.3 on). This is one part of a sample in which the highest values are shown more often than they occur.
Outcome measure: binding signal

biopolymer_sequence=CCGGCTTGCACTTGGTATTAATAGCTAAGATTACTATATCGACG result="0.423 log2 normalized fluorescence"
biopolymer_sequence=CCGGCTGACGGACGGTATTAATAGCTAAGATTACTATATCGACG result="-0.374 log2 normalized fluorescence"
biopolymer_sequence=CCGGCTGAGTCACTGTATTAATAGCTAAGATTACTATATCGACG result="-0.498 log2 normalized fluorescence"
biopolymer_sequence=CCGGCTGACACCGTGTATTAATAGCTAAGATTACTATATCGACG result="1.72 log2 normalized fluorescence"
biopolymer_sequence=CCGGCTGATAGGAGGTATTAATAGCTAAGATTACTATATCGACG result="-0.743 log2 normalized fluorescence"
biopolymer_sequence=CCGGCTGAAACTCGGTATTAATAGCTAAGATTACTATATCGACG result="-0.697 log2 normalized fluorescence"
biopolymer_sequence=CCGGCTGACACGTGGTATTAATAGCTAAGATTACTATATCGACG result="3.19 log2 normalized fluorescence"
biopolymer_sequence=CCGGCGGGCACGTGGTATTAATAGCTAAGATTACTATATCGACG result="3.35 log2 normalized fluorescence"
biopolymer_sequence=CCGGCTCATACGTGGAATTAATAGCTAAGATTACTATATCGACG result="1.28 log2 normalized fluorescence"
biopolymer_sequence=CCGGCGAACATGTGGTATTAATAGCTAAGATTACTATATCGACG result="3.2 log2 normalized fluorescence"
biopolymer_sequence=CCGGCTGACACGAGGTATTAATAGCTAAGATTACTATATCGACG result="3.08 log2 normalized fluorescence"
biopolymer_sequence=CCGGCTGGCACCTGGTATTAATAGCTAAGATTACTATATCGACG result="1.88 log2 normalized fluorescence"
biopolymer_sequence=CCGGCAAGCACGTGGTATTAATAGCTAAGATTACTATATCGACG result="3.27 log2 normalized fluorescence"
biopolymer_sequence=CCGGCTGAAGCCCGGTATTAATAGCTAAGATTACTATATCGACG result="-0.644 log2 normalized fluorescence"
biopolymer_sequence=CCGGCTGACGCCTAGTATTAATAGCTAAGATTACTATATCGACG result="-0.368 log2 normalized fluorescence"
biopolymer_sequence=CCGGCTTACACGTGGTGTTAATAGCTAAGATTACTATATCGACG result="3.07 log2 normalized fluorescence"
biopolymer_sequence=CCGGCCGACATGTGGTATTAATAGCTAAGATTACTATATCGACG result="3.18 log2 normalized fluorescence"
biopolymer_sequence=CCGGCTGAGACGTGGTCTTAATAGCTAAGATTACTATATCGACG result="1.44 log2 normalized fluorescence"
biopolymer_sequence=CCGGCGCGCACGTGGTATTAATAGCTAAGATTACTATATCGACG result="3.39 log2 normalized fluorescence"
biopolymer_sequence=CCGGCTGTCACGTGGTATTAATAGCTAAGATTACTATATCGACG result="3.12 log2 normalized fluorescence"
biopolymer_sequence=CCGGCTTGCACGTGGTTTTAATAGCTAAGATTACTATATCGACG result="3.23 log2 normalized fluorescence"
biopolymer_sequence=CCGGCTGACACGTGTCGTTAATAGCTAAGATTACTATATCGACG result="3.18 log2 normalized fluorescence"
biopolymer_sequence=CCGGCTGAACTCATGTATTAATAGCTAAGATTACTATATCGACG result="1.71 log2 normalized fluorescence"
biopolymer_sequence=CCGGCTTACACGTGATATTAATAGCTAAGATTACTATATCGACG result="3.31 log2 normalized fluorescence"
biopolymer_sequence=CCGGCCGCCACGTAGTATTAATAGCTAAGATTACTATATCGACG result="1.58 log2 normalized fluorescence"
biopolymer_sequence=CCGGCTAACACGAGGTATTAATAGCTAAGATTACTATATCGACG result="3.28 log2 normalized fluorescence"
biopolymer_sequence=CCGGCTAACACGTGATATTAATAGCTAAGATTACTATATCGACG result="3.18 log2 normalized fluorescence"
biopolymer_sequence=CCGGCTTAAACGTGTTATTAATAGCTAAGATTACTATATCGACG result="2.7 log2 normalized fluorescence"
biopolymer_sequence=CCGGCGCAAACGTGGTATTAATAGCTAAGATTACTATATCGACG result="2.98 log2 normalized fluorescence"
biopolymer_sequence=CCGGCTGAAACGTGGAATTAATAGCTAAGATTACTATATCGACG result="2.54 log2 normalized fluorescence"
biopolymer_sequence=CCGGCTTGCACGTGGTATTAATAGCTAAGATTACTATATCGACG result="3.31 log2 normalized fluorescence"

Values were extracted from paper PMC5515408.
